Test system: SpTbr T-box DNA-binding domain (GST fusion);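 further: protein at 200 nM in PBS on universal double-stranded arrays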
Sequence: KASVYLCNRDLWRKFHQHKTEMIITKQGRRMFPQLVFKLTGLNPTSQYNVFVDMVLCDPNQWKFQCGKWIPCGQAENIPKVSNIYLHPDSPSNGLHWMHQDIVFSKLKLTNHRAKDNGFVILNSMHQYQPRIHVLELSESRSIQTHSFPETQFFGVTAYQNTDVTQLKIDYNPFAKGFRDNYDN
Assay: PBM E-score of 8-mer (E-score (dimensionless, -0.5 to 0.5)); Tbr is Tbrain of the sea star Patiria miniata (Pm) or the sea urchin Strongylocentrotus purpuratus (Sp); higher = stronger binding preference
Details: the construct has about 5 more residues each side
Over roughly 33,000 sequences, “E-score (dimensionless, -0.5 to 0.5)” has its median near -0.046; the highest 2% begin near 0.36. What follows is part of a selection rich in the highest values, with near analogues and random picks from the rest.
Please go through the items and note down their PBM E-score of 8-mer.
Lab note: write the figure by itself, no unit.

PBM E-score of 8-mer measured on `GCTTGTCA` = 0.12

PBM E-score of 8-mer measured on `ACACATTG` = 0.368

PBM E-score of 8-mer measured on `CCCCTTAG` = -0.184

PBM E-score of 8-mer measured on `GACTGTCA` = 0.144

PBM E-score of 8-mer measured on `ACTGTCAA` = 0.183

PBM E-score of 8-mer measured on `ACACTTGC` = 0.4

PBM E-score of 8-mer measured on `ACACATAA` = 0.269

PBM E-score of 8-mer measured on `ACACATAG` = 0.306

PBM E-score of 8-mer measured on `AACCTTAC` = 0.0738

PBM E-score of 8-mer measured on `CAACACGC` = 0.203

PBM E-score of 8-mer measured on `AGTTCACA` = 0.442

PBM E-score of 8-mer measured on `CAGATTGA` = -0.076

PBM E-score of 8-mer measured on `AGATCACA` = 0.342

PBM E-score of 8-mer measured on `AGTGTCAA` = 0.453

PBM E-score of 8-mer measured on `CACTCACA` = 0.377

PBM E-score of 8-mer measured on `GCTTGTGA` = 0.202

PBM E-score of 8-mer measured on `GGGGGTCA` = 0.0604

PBM E-score of 8-mer measured on `CTTAGTGA` = 0.0752

PBM E-score of 8-mer measured on `CGTTCACC` = 0.0843

PBM E-score of 8-mer measured on `GACGGGCA` = -0.293

PBM E-score of 8-mer measured on `GATCGAGA` = 0.00394

PBM E-score of 8-mer measured on `CCTAGCAC` = 0.257

PBM E-score of 8-mer measured on `CGGTGTTA` = 0.337

PBM E-score of 8-mer measured on `AGAAGGTC` = -0.276

PBM E-score of 8-mer measured on `CCACATTC` = 0.14

PBM E-score of 8-mer measured on `CAACACTA` = 0.264

PBM E-score of 8-mer measured on `CGGTGTGC` = 0.0403

PBM E-score of 8-mer measured on `CGGTGTCC` = -0.0339

PBM E-score of 8-mer measured on `TCTTGTCA` = 0.24

PBM E-score of 8-mer measured on `AACCTTAG` = -0.144

PBM E-score of 8-mer measured on `ATTAGCAC` = 0.368

PBM E-score of 8-mer measured on `AGCCACAA` = 0.0237

PBM E-score of 8-mer measured on `ACTAAATA` = -0.131

PBM E-score of 8-mer measured on `ACACATTC` = 0.38

PBM E-score of 8-mer measured on `CGCATATC` = -0.0822

PBM E-score of 8-mer measured on `ATAAGAGC` = -0.19

PBM E-score of 8-mer measured on `AGTTGTGA` = 0.407

PBM E-score of 8-mer measured on `GGGTGTCA` = 0.475

PBM E-score of 8-mer measured on `GCTGTCAA` = 0.318

PBM E-score of 8-mer measured on `GTCATCTA` = -0.0343

PBM E-score of 8-mer measured on `ACCGCTGC` = 0.0922

PBM E-score of 8-mer measured on `ATTAGCAA` = -0.0446

PBM E-score of 8-mer measured on `ATGCCCGC` = 0.031

PBM E-score of 8-mer measured on `ACGAGTAT` = -0.0491

PBM E-score of 8-mer measured on `AGAGGTGG` = 0.285

PBM E-score of 8-mer measured on `ATACTTGG` = -0.22

PBM E-score of 8-mer measured on `GGAGGTGA` = 0.374

PBM E-score of 8-mer measured on `ATGGGAAC` = -0.109

PBM E-score of 8-mer measured on `AGAGGTTC` = -0.172

PBM E-score of 8-mer measured on `AAATAGCG` = 0.169

PBM E-score of 8-mer measured on `AAACATTG` = 0.0255

PBM E-score of 8-mer measured on `ATCTGTAG` = -0.206

PBM E-score of 8-mer measured on `GGTTCATA` = -0.0395

PBM E-score of 8-mer measured on `ACACATTA` = 0.291

PBM E-score of 8-mer measured on `AACTGTTG` = 0.241

PBM E-score of 8-mer measured on `CGATGTCA` = 0.134

PBM E-score of 8-mer measured on `ACACTTGA` = 0.347

PBM E-score of 8-mer measured on `ACAAGGTG` = 0.425

PBM E-score of 8-mer measured on `ACTTGTCA` = 0.419

PBM E-score of 8-mer measured on `AACTCTTG` = -0.0545

PBM E-score of 8-mer measured on `AGCTAGCT` = 0.0778

PBM E-score of 8-mer measured on `GACCTTAC` = -0.286

PBM E-score of 8-mer measured on `ACAAAGGT` = 0.119

PBM E-score of 8-mer measured on `AGTGTCAT` = 0.405

PBM E-score of 8-mer measured on `CAACACCA` = 0.373

PBM E-score of 8-mer measured on `GGGTGTTA` = 0.463

PBM E-score of 8-mer measured on `GGAGGTCA` = 0.0169

PBM E-score of 8-mer measured on `CGGTGTGA` = 0.456

PBM E-score of 8-mer measured on `ACATAGGT` = 0.221

PBM E-score of 8-mer measured on `GACCTTAA` = -0.188

PBM E-score of 8-mer measured on `CAACACGA` = 0.185

PBM E-score of 8-mer measured on `GGTTCACA` = 0.397

PBM E-score of 8-mer measured on `CACCGATC` = 0.154

PBM E-score of 8-mer measured on `CACCTTAG` = 0.401

PBM E-score of 8-mer measured on `AACTCACA` = 0.244

PBM E-score of 8-mer measured on `AATGTCAT` = -0.162

PBM E-score of 8-mer measured on `ACTTGTGG` = 0.205

PBM E-score of 8-mer measured on `CACCTTAA` = 0.387

PBM E-score of 8-mer measured on `GGGGGTTA` = -0.156

PBM E-score of 8-mer measured on `CGAGGTGC` = 0.445

PBM E-score of 8-mer measured on `CTTAGCAC` = 0.364

PBM E-score of 8-mer measured on `TAACACTA` = 0.373

PBM E-score of 8-mer measured on `AGAGGTGC` = 0.394

PBM E-score of 8-mer measured on `ACCTTAGC` = 0.211

PBM E-score of 8-mer measured on `AAAAAAGT` = -0.074

PBM E-score of 8-mer measured on `CACCTTAC` = 0.413

PBM E-score of 8-mer measured on `AGTCCATA` = -0.295

PBM E-score of 8-mer measured on `GCGTGTCA` = 0.313

PBM E-score of 8-mer measured on `TATCTCAA` = -0.0883

PBM E-score of 8-mer measured on `ACCAATGA` = -0.0571

PBM E-score of 8-mer measured on `GCAGAGAA` = -0.328
